value type: melting point

Answered cases to consult:
compound: Cc1cc(C#N)cc2c(=O)oc(-c3cc(Br)nn3-c3ncccc3Cl)nc12
melting point: 263 to 267 °C
//
compound: CN=C(NS(=O)(=O)c1ccc(Cl)cc1)C1=NN(c2ccc(Cl)cc2Cl)C(c2ccccc2)C1 (stereo unspecified)
melting point: 128 to 130 °C
//
compound: O=C1N=C(N2CCOCC2)SC1Cc1cccc(-c2ccc(O)c(C3CCCCC3)c2)c1 (stereo unspecified)
melting point: 100 to 108 °C

Asked: Hello, please tell me recorded melting point for this one: COC(=O)c1cscc1NC(=O)CCl
Given back: 98 to 100 °C

Asked: Quickly give me recorded melting point for COc1ccc(C(=O)O)c([N+](=O)[O-])c1OC
Given back: 200 to 202 °C

Asked: Tell me measured melting point for C=CCC(C#N)(C#N)Cc1ccc(C(F)(F)F)cc1 please.
Given back: 80.2 °C

---

value type: melting point

These recorded examples may help you get a feel for the data.
compound: CC(NC(=O)CNC(=O)c1ccccc1)C(C)(C)C (stereo unspecified)
reading: 124 to 126 °C

compound: COc1ccc(-c2cc(=O)c3c(O)cc(OC)cc3o2)cc1
reading: 174 to 175 °C

compound: Cn1cc(C(N)=O)c([N+](=O)[O-])n1
reading: 190 to 192 °C

compound: Nc1nc(OC(F)F)cc(OC(F)F)n1
reading: 67 to 69 °C

compound: CC(C)(C)N1C(=O)c2cc([N+](=O)[O-])cnc2C1=O
reading: 170 to 173 °C

Asked: Give the reported value of melting point for this record: O=C(NCCO)c1c([N+](=O)[O-])ccc(N(CCBr)CCBr)c1[N+](=O)[O-]
Given back: 94 to 97 °C

Asked: Return melting point (reported value) for this compound: C=C(COC(=O)Oc1ccc([N+](=O)[O-])cc1)C(=O)OCC
Given back: 42 to 43 °C

Asked: State its melting point for this compound: COc1cccc(-c2cccc3nc(Nc4cc(OC)c(OC)c(OC)c4)oc23)c1
Given back: 167 to 170 °C

Asked: Supply reported melting point belonging to this compound: CCC(CC)c1ccc(CN2CCCC2)c2nc(Oc3c(C)cc(Cl)cc3Cl)n(C)c12
Given back: 107 to 108 °C

---

value type: melting point

compound: CNC(=O)[C@@H]1CCN1S(=O)(=O)c1ccc(Cl)c(COc2cccc3c(-n4ccnc4)cc(C)nc23)c1Cl
reading: 118 °C

Asked: Give the reported value of melting point for this record: CCOC(=O)C(=C1CCCN1C)c1cc(OC)c(OC)c(OC)c1
Given back: 115 to 116 °C

Asked: Report melting point for CC(C)c1cccc(C(C)C)c1NC(=O)NC1CC(C)(C)c2ccccc2C1(C)C (stereo not given)
Given back: 180 to 181 °C

---

Each entry below carries its recorded melting point.

compound: COC(=O)Oc1ccc(OC)c(C=O)c1
melting point: 88 to 89 °C
--
compound: CC(CCCO)C1CCC2C3CCC4CC(O)CCC4(C)C3CC(O)C12C (stereo not given)
melting point: 110 to 116 °C
--
compound: COc1ccc(CCN2C(=O)OC3(CCN(Cc4ccccc4)CC3)C2(C)O)cc1OC (stereo not given)
melting point: 111 to 120 °C
--
compound: Oc1ccc2c(c1)COc1c-2cc2ccc(O)cc2c1-c1ccco1
melting point: 158 to 163 °C

The record that follows has no melting point shown yet.
Asked: Please indicate melting point recorded for CSc1noc(C2CC2)c1C(=O)c1ccc(C(F)(F)F)nc1C
Given back: 103 to 104 °C

---

value type: melting point

Asked: Report measured melting point; entry is CC(C)(NC(=O)C1=C(C(=O)Nc2cc(OC3CCCC3)c(Cl)cc2F)CCCC1)c1ccccc1
Given back: 206 to 207 °C

Asked: Identify melting point associated with the molecule CSc1[nH]c2cccc3c2c1CC1C3CC(C)CN1C (stereo not given)
Given back: 201 to 202 °C

Asked: Give the value of melting point reported for the following: Cc1nn(CC(F)CO)c(-c2ccc(F)cc2)c1-c1ccc2c(c1)NC(=O)CO2 (stereo not given)
Given back: 193 to 196 °C

Asked: For the molecule COC(=O)CCc1ccc(S(=O)(=O)c2ccc(NC(=O)c3ccc(Cl)c(Cl)c3)cn2)cc1 , give its measured melting point value.
Given back: 165 to 166 °C

Asked: Using the record for COC1(OC)CN(c2cc3c(cc2F)c(=O)c(C(=O)O)cn3-c2ccc(F)cc2F)CC1C (stereo not given) , state its measured melting point.
Given back: 193 to 194 °C

Asked: Consider the molecule O=C(CBr)c1csc(-c2ccc([N+](=O)[O-])cc2)n1 . State its measured melting point.
Given back: 186 to 187 °C

---

Item-by-item account of melting point

Some solved cases for reference:
molecule: CCCCCC(=O)c1cccc(NC(=O)c2ccc(Cl)cc2O)c1
melting point: 134 to 136 °C
//
molecule: CC(C)(C)OC(=O)N1CSCC1C(=O)Nc1ccc(-n2nc(C(F)(F)F)cc2C(F)(F)F)cc1 (stereo not given)
melting point: 82 to 84 °C
//
molecule: Cc1cc(-c2noc(C(F)(F)F)n2)cc(C)c1OCCCc1cncs1
melting point: 95 to 97 °C
//
molecule: O=c1c(C2CCCC2)coc2cc(O)cc(Cl)c12
melting point: 282 to 284 °C

Asked: Report measured melting point; entry is CC1(O)CC(=O)OC(c2ccc(OCc3ccccc3)cc2)C1Br (stereo not given)
Given back: 157 to 162 °C

---

# maps each entry to its melting point

// known answers, use as guide
compound: Cc1cnc2c(c1)C(=O)N(C(C)C)C2=O
melting point: 127 to 128 °C

compound: Cc1oc(-c2ccccc2)nc1COc1ccc(CCCCCBr)cc1
melting point: 58 to 59 °C

compound: O=c1cc(NCC2CCCO2)oc2c1ccc1ccccc12 (configuration not stated)
melting point: 139 to 140 °C

compound: CC(C)(C)OC(=O)NN(Cc1cc(F)cc(F)c1)C(N)=O
melting point: 129 to 130 °C

compound: CNc1c(C)cc([N+](=O)[O-])cc1C
melting point: 99 °C

compound: O=[N+]([O-])c1cccc(-c2ncc[nH]2)c1
melting point: 193 to 194 °C

compound: CC(Cl)(Cl)C(NC(=O)c1ccc(Cl)cc1)NC(=NC#N)Nc1ccc(F)nc1 (configuration not stated)
melting point: 206 to 207 °C

compound: CC(C)(C)N(NC(=O)c1ccccc1)C(=O)c1ccncc1
melting point: > 210 °C

compound: COc1ccc(NC(=O)Oc2ccc3c(c2)N(Cc2ccccc2)CCC3)cc1
melting point: 170 °C

compound: CN(C)CCc1[nH]c2ccccc2c1CSC1=NCCS1
melting point: 140 to 143 °C

Asked: Tell me melting point reported for O=C(OCC1CC1)c1ncn2c1[C@@H]1CCN1C(=O)c1c(I)cccc1-2
Given back: 190 to 191 °C

Asked: Output melting point of COC(=O)c1nc(Br)nc(Br)c1Cl
Given back: 92 to 93 °C

Asked: Please give measured melting point of the following entry: O=C(OCN1C(=O)c2ccccc2S1(=O)=O)c1ccncc1
Given back: 145 to 146 °C

Asked: Tell me melting point reported for CCOC(C)n1c(Cl)c(Cl)c(C#N)c1-c1ccc(Cl)c(Cl)c1 (configuration not stated)
Given back: 124 to 126 °C

Asked: Hello, please tell me recorded melting point for this one: CCOC(=O)c1onc(OCC)c1CN1C(=O)c2ccccc2C1=O
Given back: 93 to 94 °C

Asked: Identify measured melting point associated with CC(=O)OC1CC(C)(C)C(OC(=O)c2ccccc2)C(O)C=C1C (configuration not stated)
Given back: 113 to 114 °C

---

melting point values by entry

Worked examples, 5 molecules total:
molecule: CCCCCCCCOc1ccc2c(c1)C(=O)c1cc3ccccc3cc1C2=O
melting point: 127 to 129 °C
//
molecule: CCOCC(=O)Nc1ncc(Br)s1
melting point: 100 to 102 °C
//
molecule: CC(C)Sc1c(C(N)=O)n(C)c2ccc(O)cc12
melting point: 60 to 62 °C
//
molecule: Cc1cccc(Cl)c1N1Cc2cnc(Nc3ccccc3)nc2N(c2cccc(CCN)c2)C1=O
melting point: 192 °C
//
molecule: CCOC(=O)c1ncn2c1[C@@H]1CCN1C(=O)c1cc(F)ccc1-2
melting point: 226 to 227 °C

Asked: Assign melting point to the following record: COc1nc2c(cc1NC(=S)N1CCN(c3cc(C)cc(C)c3)CC1)CCCC2
Given back: 200 to 201 °C

Asked: Consider the molecule O=c1[nH]cnc2nn(C3CCCCC3)cc12 and give its recorded melting point.
Given back: 287 to 289 °C

Asked: In one line, give reported melting point of the entry N#Cc1cnn(-c2ccc(CBr)cc2)n1 .
Given back: 147 to 148 °C

---

value type: melting point

molecule: Fc1ccc(CC2CCN(CCOc3ccc4c(c3)=NC(=S)N=4)CC2)cc1
melting point: 278 to 280 °C
//
molecule: O=C(O)c1ncsc1-c1cc(F)cc(F)c1
melting point: 200 °C
//
molecule: COc1ccc(N2CCN(c3ccc(-n4cnnc4S)cc3)CC2)cc1
melting point: 232 °C

Asked: Check the records and state melting point for CCCn1nc(C)c(C#N)c1N
Given back: 104 to 105 °C

Asked: Look up and report measured melting point for this entry: CCOC(=O)/C(=N\OC(C)(C)C)c1csc(N)n1
Given back: 111 to 112 °C

Asked: Indicate the recorded melting point value for this molecule: NC(=O)NN=Cc1ccc(Oc2ccc3c(c2)CCCC3)cc1
Given back: 202 to 204 °C

Asked: State its melting point for this molecule: CCCc1c[nH]nc1OCCCc1cn(-c2ccc(C(F)(F)F)cn2)nc1CCC
Given back: 127 to 128 °C

Asked: Output melting point of CCNC(=O)c1c(I)cccc1[Si](C)(C)C
Given back: 135 to 137 °C
